Collected GI50 values appear next to each entry.
- Test system: OVCAR-8 ovarian
- test-description: NCI tumour cell line growth inhibition, 48 h
quantity-name: GI50

In [3]: df
Out[3]:
                                   compound  endpoint_result
0  COc1ccc2[nH]c(O)c(/C=c3/cc4c(c(-c5cc(OC)c(OC)c(OC)c5)n3)=Nc3ccccc3-4)c2c1          3.77 µM
1  Cc1c(C(=O)N/N=C/c2ccc(Cl)cc2)nnn1-c1ccnc2c(C(F)(F)F)cccc12          2.25 µM
2  COc1ccc(C2=NN(C(=O)c3cc(OC)c(OC)c(OC)c3)C(c3ccc(C#N)cc3)C2)cc1OC (configuration not stated)          3.26 µM
3  Cc1ccc(S(=O)(=O)N(CCOc2ccc(/C(N)=N/Cl)cc2)CCOc2ccc(/C(N)=N\Cl)cc2)cc1            12 µM
4  CC1=C(C(=O)Nc2ccc3[nH]ncc3c2)C(c2ccc3ccccc3c2)CC(=O)N1 (configuration not stated)          > 25 µM
5  CCc1c(Oc2ccc(C(C)=O)cc2)c2ccccc2[nH]c1=O          19.1 µM
6  O=C1/C(=C/c2ccc(Cl)cc2Cl)N=C(c2ccccc2)N1Cc1ccco1          20.5 µM
